target_or_system: Endothelin-converting enzyme 1 (Homo sapiens) (UniProt P42892)
Sequence (P42892 whole entry): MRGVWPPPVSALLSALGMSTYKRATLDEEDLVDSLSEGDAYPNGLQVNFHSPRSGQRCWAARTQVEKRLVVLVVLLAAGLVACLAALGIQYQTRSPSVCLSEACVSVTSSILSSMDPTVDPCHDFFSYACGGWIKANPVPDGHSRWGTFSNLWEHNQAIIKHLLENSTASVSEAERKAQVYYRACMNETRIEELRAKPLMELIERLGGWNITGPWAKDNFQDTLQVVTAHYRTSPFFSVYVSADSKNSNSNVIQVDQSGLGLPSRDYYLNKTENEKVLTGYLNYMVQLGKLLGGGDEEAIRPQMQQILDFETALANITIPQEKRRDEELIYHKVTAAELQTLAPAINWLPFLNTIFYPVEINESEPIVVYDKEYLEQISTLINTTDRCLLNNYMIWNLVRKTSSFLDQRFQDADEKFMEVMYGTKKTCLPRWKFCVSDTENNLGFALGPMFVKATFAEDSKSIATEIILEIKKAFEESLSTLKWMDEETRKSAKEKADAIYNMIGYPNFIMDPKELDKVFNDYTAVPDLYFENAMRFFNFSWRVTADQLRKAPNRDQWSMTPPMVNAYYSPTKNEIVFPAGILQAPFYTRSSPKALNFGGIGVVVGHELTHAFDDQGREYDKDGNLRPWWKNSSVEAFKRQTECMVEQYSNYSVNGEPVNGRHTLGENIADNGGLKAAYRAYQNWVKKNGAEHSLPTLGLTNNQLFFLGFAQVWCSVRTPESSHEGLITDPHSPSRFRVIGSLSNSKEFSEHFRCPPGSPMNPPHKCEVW
assay_protocol: In vitro inhibitory activity was tested against Endothelin converting enzyme 1 at a concentration of 1 uM
measured_attribute: inhibition (%)

Example results:
Inquiry: Which inhibition is listed for `CC(C)[C@H](S)C(=O)NC1(C(=O)N[C@@H](Cc2cccc(-c3ccccc3)c2)C(=O)O)CCCC1` ?
Reply text: 39

Inquiry: Lookup `CC(C)[C@H](S)C(=O)NC1(C(=O)N[C@@H](Cc2ccc(-c3ccc(C(F)(F)F)cc3)cc2)C(=O)O)CCCC1`
Reply text: 54

Inquiry: Lookup `CC(C)[C@H](S)C(=O)NC1(C(=O)N[C@@H](Cc2ccccc2)C(=O)O)CCCC1`
Reply text: 26

Inquiry: Lookup `CC(C)[C@H](S)C(=O)NC1(C(=O)N[C@@H](Cc2ccc(-c3ccccc3)cc2)C(=O)O)CCCC1`
Reply text: 77

Inquiry: Lookup `CC(C)[C@H](S)C(=O)NC1(C(=O)N[C@@H](Cc2ccccc2-c2ccccc2)C(=O)O)CCCC1`
Reply text: 0

Inquiry: Lookup `CC(C)[C@H](S)C(=O)NC1(C(=O)N[C@H](Cc2ccc(-c3ccccc3)cc2)C(=O)O)CCCC1`
Reply text: 18

a. COc1ccc(-c2ccc(C[C@H](NC(=O)C3(NC(=O)[C@@H](S)C(C)C)CCCC3)C(=O)O)cc2)cc1
b. CC(C)[C@H](S)C(=O)NC1(C(=O)NC(Cc2ccc(-c3ccncc3)cc2)C(=O)O)CCCC1 (stereo partly drawn)
Inquiry: Quick one: lower inhibition, a or b ? Record your answer as the label of the chosen record.
Reply text: b
